System Under Test: human MC1R (Homo sapiens, UniProt Q01726)
Construct: expressed in transfected cells
Sequence (Q01726 whole entry): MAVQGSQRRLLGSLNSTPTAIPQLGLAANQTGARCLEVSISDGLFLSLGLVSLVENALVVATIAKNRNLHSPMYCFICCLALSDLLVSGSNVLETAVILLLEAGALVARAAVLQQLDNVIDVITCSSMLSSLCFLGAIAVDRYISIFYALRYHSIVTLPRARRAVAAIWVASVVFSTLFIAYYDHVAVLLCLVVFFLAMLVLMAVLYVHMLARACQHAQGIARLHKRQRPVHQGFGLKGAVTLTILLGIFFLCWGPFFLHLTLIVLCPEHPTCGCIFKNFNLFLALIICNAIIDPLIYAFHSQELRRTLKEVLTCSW
Protocol Summary: Functional cAMP assay (CisBio HTRF) in BHK cells expressing human MC1R
Assay type: cell-based
Details: BHK cells expressing human MC1R; '>' = highest dose used with no response; read-out: MC1R cAMP EC50
Positions of bridges follow the written chain, without caps; N, C: chain ends. Non-standard residues stand in square brackets, D forms with d. Residues, ends and D or L forms follow the SMILES beside them. GABA = NCCCC(=O)O
Quantity Kind: EC50 (nM)
Just the number please, in nM, no unit attached.

Task: Item under review: N=C(N)NCCC[C@@H]1NC(=O)[C@@H](Cc2ccccc2)NC(=O)[C@H](Cc2c[nH]cn2)NC(=O)CCCNC(=O)[C@@H]2CSSC[C@H](NC(=O)[C@H](Cc3c[nH]c4ccccc34)NC1=O)C(=O)NCCCC(=O)N[C@@H](Cc1c[nH]cn1)C(=O)N[C@H](Cc1ccccc1)C(=O)N[C@@H](CCCNC(=N)N)C(=O)N[C@@H](Cc1c[nH]c3ccccc13)C(=O)N2 [Chem. 35] (cyclo(C[GABA]H[dF]RWC[GABA]H[dF]RW); disulfide 1-7) . Reported EC50?
Result: 0.28

* * *

System Under Test: human MC1R (Homo sapiens, UniProt Q01726)
Construct: expressed in transfected cells
Protocol Summary: Functional cAMP assay (CisBio HTRF) in BHK cells expressing human MC1R
Type: cell-based
Details: BHK cells expressing human MC1R; '>' = highest dose used with no response; read-out: MC1R cAMP EC50
Method: In order to assess the potency of the compounds on human MC1R and human MC4R cAMP signalling was measured. cAMP induction was measured by c-AMPdynamic2 assay, HTRF 62AM4PEC system from CisBio for the human MC1R and human MC4R according to the protocol provided by the vendor. BHK cells expressing the human MC1 or MC4 receptor were generated by stable transfection with expression vectors encoding the cDNA of either MC1R or MC4R. […]
Positions of bridges follow the written chain, without caps; N, C: chain ends. Non-standard residues stand in square brackets, D forms with d. Residues, ends and D or L forms follow the SMILES beside them.
Quantity Kind: EC50 (nM)
Just the number please, in nM, no unit attached.

- C[C@@H]1NC(=O)[C@@H]2CSSC[C@H](NC(=O)[C@H](Cc3c[nH]c4ccccc34)NC(=O)[C@H](CCCNC(=N)N)NC(=O)[C@@H](Cc3ccccc3)NC(=O)[C@H](Cc3c[nH]cn3)NC1=O)C(=O)N1CCC[C@H]1C(=O)N1CCC[C@H]1C(=O)N[C@@H](CCC(=O)O)C(=O)N[C@@H](CCCNC(=N)N)C(=O)N[C@@H](Cc1c[nH]c3ccccc13)C(=O)N2 [Chem. 112] (cyclo(AH[dF]RWCPPERWC); disulfide 6-12): 30.2

Consider the additional compound presented here.
Task: Item under review: C[C@@H]1NC(=O)[C@@H]2CSSC[C@H](NC(=O)[C@H](Cc3c[nH]c4ccccc34)NC(=O)[C@H](CCCNC(=N)N)NC(=O)[C@@H](Cc3ccccc3)NC(=O)[C@H](Cc3c[nH]cn3)NC1=O)C(=O)N[C@@H](CCCCN)C(=O)N[C@@H](CCCCN)C(=O)N[C@@H](CCCCN)C(=O)N[C@@H](CCCNC(=N)N)C(=O)N2 [Chem. 101] (cyclo(AH[dF]RWCKKKRC); disulfide 6-11) . Reported EC50?
Result: 0.19

* * *

System Under Test: human MC4R (Homo sapiens)
Construct: expressed in transfected cells
Protocol Summary: 125NDP-α-MSH competitive binding to membranes of BHK cells expressing human MC4 receptor (filtration assay)
Details: human MC4R, BHK cell membranes, 125NDP-α-MSH radioligand; read-out: MC4R binding Ki
Positions of bridges follow the written chain, without caps; N, C: chain ends. Non-standard residues stand in square brackets, D forms with d. Residues, ends and D or L forms follow the SMILES beside them.
molecules and their reported pKi
Please report pKi as the negative decimal logarithm of the molar concentration, giving only the number.

Consider the reported pKi for these molecules:
* C[C@@H]1NC(=O)[C@@H]2CSSC[C@H](NC(=O)[C@H](Cc3c[nH]c4ccccc34)NC(=O)[C@H](CCCCN)NC(=O)[C@H](CCCCN)NC(=O)[C@H](CCCCN)NC1=O)C(=O)N[C@H](CCCCN)C(=O)N[C@@H](Cc1c[nH]cn1)C(=O)N[C@H](Cc1ccccc1)C(=O)N[C@@H](Cc1c[nH]cn1)C(=O)N[C@@H](Cc1c[nH]c3ccccc13)C(=O)N2 [Chem. 84] (cyclo(AKKKWC[dK]H[dF]HWC); disulfide 6-12) | 9.72
* C[C@@H]1NC(=O)[C@@H]2CSSC[C@H](NC(=O)[C@H](Cc3c[nH]c4ccccc34)NC(=O)[C@H](CCCNC(=N)N)NC(=O)[C@@H](Cc3ccccc3)NC(=O)[C@H](Cc3c[nH]cn3)NC1=O)C(=O)N1CCC[C@H]1C(=O)N1CCC[C@H]1C(=O)N[C@@H](CCC(=O)O)C(=O)N[C@@H](CCCNC(=N)N)C(=O)N[C@@H](Cc1c[nH]c3ccccc13)C(=O)N2 [Chem. 112] (cyclo(AH[dF]RWCPPERWC); disulfide 6-12) | 8.92

Consider the additional molecule presented here.
Task: Item under review: C[C@@H]1NC(=O)[C@@H]2CSSC[C@H](NC(=O)[C@H](CCCNC(=N)N)NC(=O)[C@H](CCCCN)NC(=O)[C@H](CCCCN)NC(=O)[C@H](Cc3c[nH]cn3)NC1=O)C(=O)N1CCC[C@H]1C(=O)N[C@@H](Cc1c[nH]cn1)C(=O)N[C@H](Cc1ccccc1)C(=O)N[C@@H](Cc1c[nH]cn1)C(=O)N[C@@H](Cc1c[nH]c3ccccc13)C(=O)N2 [Chem. 96] (cyclo(AHKKRCPH[dF]HWC); disulfide 6-12) . Reported pKi?
Result: 10.40

* * *

System Under Test: human MC4R (Homo sapiens, UniProt P32245)
Construct: expressed in transfected cells
Sequence (P32245 whole entry): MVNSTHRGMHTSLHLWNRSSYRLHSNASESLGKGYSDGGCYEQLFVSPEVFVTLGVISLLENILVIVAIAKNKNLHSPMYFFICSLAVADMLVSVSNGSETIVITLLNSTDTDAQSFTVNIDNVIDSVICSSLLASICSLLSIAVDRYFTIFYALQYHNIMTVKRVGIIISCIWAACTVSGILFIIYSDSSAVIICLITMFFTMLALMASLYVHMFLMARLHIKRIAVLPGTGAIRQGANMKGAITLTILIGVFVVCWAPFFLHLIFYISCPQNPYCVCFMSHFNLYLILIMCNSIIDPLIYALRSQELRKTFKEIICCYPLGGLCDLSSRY
Protocol Summary: 125NDP-α-MSH competitive binding to membranes of BHK cells expressing human MC4 receptor (filtration assay)
Details: human MC4R, BHK cell membranes, 125NDP-α-MSH radioligand; read-out: MC4R binding Ki
Positions of bridges follow the written chain, without caps; N, C: chain ends. Non-standard residues stand in square brackets, D forms with d. Residues, ends and D or L forms follow the SMILES beside them.
Quantity Kind: pKi
Please report pKi as the negative decimal logarithm of the molar concentration, giving only the number.

Consider the reported pKi for these compounds:
- C[C@@H]1NC(=O)[C@@H]2CSSC[C@H](NC(=O)[C@H](Cc3c[nH]c4ccccc34)NC(=O)[C@H](CCCNC(=N)N)NC(=O)[C@@H](Cc3ccccc3)NC(=O)[C@H](Cc3c[nH]cn3)NC1=O)C(=O)N[C@@H](CCCCN)C(=O)N[C@@H](CCCCN)C(=O)N[C@@H](CCCCN)C(=O)N[C@@H](CCCNC(=N)N)C(=O)N2 [Chem. 101] (cyclo(AH[dF]RWCKKKRC); disulfide 6-11): 10.30
- C[C@@H]1NC(=O)[C@@H]2CSSC[C@H](NC(=O)[C@H](Cc3c[nH]c4ccccc34)NC(=O)[C@H](CCCCN)NC(=O)[C@@H](Cc3ccccc3)NC(=O)[C@H](Cc3c[nH]cn3)NC1=O)C(=O)N[C@@H](C)C(=O)N[C@@H](Cc1c[nH]cn1)C(=O)N[C@H](Cc1ccccc1)C(=O)N[C@@H](CCCCN)C(=O)N[C@@H](Cc1c[nH]c3ccccc13)C(=O)N2 [Chem. 15] (cyclo(AH[dF]KWCAH[dF]KWC); disulfide 6-12): 9.92

Task: Item under review: C[C@@H]1NC(=O)[C@H](C)NC(=O)[C@H](Cc2c[nH]c3ccccc23)NC(=O)[C@H](CCCNC(=N)N)NC(=O)[C@@H](Cc2ccccc2)NC(=O)[C@H](Cc2c[nH]cn2)NC(=O)[C@H](C)NC(=O)[C@H](C)NC(=O)[C@H](Cc2c[nH]c3ccccc23)NC(=O)[C@H](CCCNC(=N)N)NC(=O)[C@@H](Cc2ccccc2)NC(=O)[C@H](Cc2c[nH]cn2)NC1=O [Chem. 7] (cyclo(AAH[dF]RWAAH[dF]RW)) . Reported pKi?
Result: 9.33

* * *

System Under Test: human MC4R (Homo sapiens, UniProt P32245)
Construct: expressed in transfected cells
Protocol Summary: Functional cAMP assay (CisBio HTRF) in BHK cells expressing human MC4R
Type: cell-based
Details: MC1R cAMP EC50 divided by MC4R cAMP EC50
Positions of bridges follow the written chain, without caps; N, C: chain ends. Non-standard residues stand in square brackets, D forms with d. Residues, ends and D or L forms follow the SMILES beside them. Hyp = O=C(O)[C@@H]1C[C@@H](O)CN1; Cit = NC(=O)NCCC[C@H](N)C(=O)O; Ac4c = NC1(C(=O)O)CCC1
Output YES for MC1R/MC4R cAMP EC50 ratio not less than 80; output NO otherwise.

# example entries with known answers
* N=C(N)NCCC[C@@H]1NC(=O)[C@@H](Cc2ccccc2)NC(=O)[C@H](Cc2c[nH]cn2)NC(=O)C2(CCC2)NC(=O)[C@@H]2CSSC[C@H](NC(=O)[C@H](Cc3c[nH]c4ccccc34)NC1=O)C(=O)NC1(CCC1)C(=O)N[C@@H](Cc1c[nH]cn1)C(=O)N[C@H](Cc1ccccc1)C(=O)N[C@@H](CCCNC(=N)N)C(=O)N[C@@H](Cc1c[nH]c3ccccc13)C(=O)N2 [Chem. 20] (cyclo([Ac4c]H[dF]RWC[Ac4c]H[dF]RWC); disulfide 6-12) | YES
* NCCCC[C@@H]1NC(=O)[C@@H]2CSSC[C@H](NC(=O)[C@H](Cc3c[nH]c4ccccc34)NC(=O)[C@H](CCCNC(N)=O)NC(=O)[C@@H](Cc3ccccc3)NC(=O)[C@H](Cc3c[nH]cn3)NC1=O)C(=O)N[C@@H](CCCCN)C(=O)N[C@@H](Cc1c[nH]cn1)C(=O)N[C@H](Cc1ccccc1)C(=O)N[C@@H](CCCNC(N)=O)C(=O)N[C@@H](Cc1c[nH]c3ccccc13)C(=O)N2 [Chem. 55] (cyclo(CKH[dF][Cit]WCKH[dF][Cit]W); disulfide 1-7) | NO
* C[C@@H]1NC(=O)[C@H](C)NC(=O)[C@H](C)NC(=O)[C@@H]2CSSC[C@H](NC(=O)[C@H](CCCNC(=N)N)NC(=O)[C@H](C)NC1=O)C(=O)N[C@@H](C)C(=O)N[C@@H](Cc1c[nH]cn1)C(=O)N[C@H](Cc1ccccc1)C(=O)N[C@@H](CCCNC(=N)N)C(=O)N[C@@H](Cc1c[nH]c3ccccc13)C(=O)N2 [Chem. 89] (cyclo(AAAARCAH[dF]RWC); disulfide 6-12) | NO
* C[C@@H]1NC(=O)[C@@H]2CSSC[C@H](NC(=O)[C@H](CCCNC(=N)N)NC(=O)[C@H](CCCCN)NC(=O)[C@H](CCCCN)NC(=O)[C@H](CCCCN)NC1=O)C(=O)N1C[C@H](O)C[C@H]1C(=O)N[C@@H](Cc1c[nH]cn1)C(=O)N[C@H](Cc1ccccc1)C(=O)N[C@@H](Cc1c[nH]cn1)C(=O)N[C@@H](Cc1c[nH]c3ccccc13)C(=O)N2 [Chem. 97] (cyclo(AKKKRC[Hyp]H[dF]HWC); disulfide 6-12) | YES

Task: Hello, I need to know if C[C@@H]1NC(=O)[C@@H]2CSSC[C@H](NC(=O)[C@H](Cc3c[nH]c4ccccc34)NC(=O)[C@H](CCCCN)NC(=O)[C@H](CCCCN)NC(=O)[C@H](CCCCN)NC1=O)C(=O)N[C@H](CCCCN)C(=O)N[C@@H](Cc1c[nH]cn1)C(=O)N[C@H](Cc1ccccc1)C(=O)N[C@@H](Cc1c[nH]cn1)C(=O)N[C@@H](Cc1c[nH]c3ccccc13)C(=O)N2 [Chem. 84] (cyclo(AKKKWC[dK]H[dF]HWC); disulfide 6-12) has measured MC1R/MC4R cAMP EC50 ratio not below 80. Thanks!
Result: NO

Task: Hello, I need to know if `C[C@@H]1NC(=O)[C@@H]2CSSC[C@H](NC(=O)[C@H](Cc3c[nH]c4ccccc34)NC(=O)[C@H](CCN)NC(=O)[C@@H](Cc3ccccc3)NC(=O)[C@H](Cc3c[nH]cn3)NC1=O)C(=O)N[C@@H](C)C(=O)N[C@@H](Cc1c[nH]cn1)C(=O)N[C@H](Cc1ccccc1)C(=O)N[C@@H](CCN)C(=O)N[C@@H](Cc1c[nH]c3ccccc13)C(=O)N2` has measured MC1R/MC4R cAMP EC50 ratio not below 80. Thanks!
Result: YES

Task: Hello, I need to know if NCCCC[C@@H]1NC(=O)[C@@H]2CSSC[C@H](NC(=O)[C@H](Cc3c[nH]c4ccccc34)NC(=O)[C@H](Cc3c[nH]cn3)NC(=O)[C@@H](Cc3ccccc3)NC(=O)[C@H](Cc3c[nH]cn3)NC1=O)C(=O)N[C@@H](CCCCN)C(=O)N[C@@H](Cc1c[nH]cn1)C(=O)N[C@H](Cc1ccccc1)C(=O)N[C@@H](Cc1c[nH]cn1)C(=O)N[C@@H](Cc1c[nH]c3ccccc13)C(=O)N2 [Chem. 52] (cyclo(CKH[dF]HWCKH[dF]HW); disulfide 1-7) has measured MC1R/MC4R cAMP EC50 ratio not below 80. Thanks!
Result: YES
